tested on: U2OS; experiment: Multiplex assay against U2OS; assay type: toxicity, cell-based; settings: human, 48 h, 10 µM, compound concentration 10 uM, replicate 2
readout: Population Hoechst High Intensity Objects (%)
# output: bare number, implied unit %

Please review the following examples before continuing.
CNCc1ccccc1-c1csc([C@H](C)Nc2nc(C)nc3cc(OC)c(OC)cc23)c1 : 61
CCOCCn1cc(C(=O)Nc2ccc(-n3nc(-c4cccnc4)cc3C(F)(F)F)cn2)ccc1=O : 4
CN1CCN(c2ccc(OC(F)(F)F)c(Nc3ncc4c(n3)-c3c(c(C(N)=O)nn3CCO)CC4)c2)CC1 : 10
Cn1cc(-c2[nH]c3cc(NC(=O)[C@H](N)C4CCCCC4)cc4c3c2C=NNC4=O)cn1 : 20
Cc1nc(-c2ccc(-c3ccc(C(=O)N4CCc5cc6c(cc54)C4(CCN(C)CC4)CO6)cc3)c(C)c2)no1 : 18

Given the entry O=C1NCN(c2ccccc2)C12CCN(CCCOc1ccc(F)cc1)CC2 [SPIRAMIDE] , report its measured Population Hoechst High Intensity Objects (%). 9

Would you mind doing OC1(c2ccc(Cl)cc2)CCN(Cc2c[nH]c3ccccc23)CC1 as well? 8

Would you mind doing CNc1nc(NCc2ccc(NS(C)(=O)=O)cc2Cl)cc(-c2ccccn2)n1 as well? 13

Would you mind doing CC(C)(O)CNc1ncc(-c2ccnc(Nc3ccnc(Cl)c3)n2)c(CC2CC2)n1 as well? 17

Would you mind doing COc1cccc([C@@H](C)NCCCc2ccccc2Cl)c1.Cl [TECALCET HYDROCHLORIDE] as well? 4

Would you mind doing COc1cc(-n2cnc3cc(-c4ccc(Cl)cc4)sc3c2=O)ccc1OCCN1CCCC1 as well? 5

Would you mind doing CN1CCN(CCOc2cc(OC3CCOCC3)c3c(Nc4c(Cl)ccc5c4OCO5)ncnc3c2)CC1 as well? 15

Would you mind doing CN(C)C(=O)N[C@H]1CC[C@H](CCN2CCN(c3cccc(Cl)c3Cl)CC2)CC1.Cl [CARIPRAZINE HYDROCHLORIDE] as well? 2

Would you mind doing CN1CCCC(n2nc(Cc3ccc(Cl)cc3)c3ccccc3c2=O)CC1.Cl (configuration not stated) [AZELASTINE HYDROCHLORIDE] as well? 5

Would you mind doing Cc1cc(C)cc(-c2cnc3cc(Cl)c(-c4cccc(O)c4)cc3c2OCCCN)c1 as well? 17

Would you mind doing COc1cc2nccc(Oc3ccc(NC(=O)Nc4cc(C)on4)c(Cl)c3)c2cc1OC.O as well? 15

Would you mind doing Cc1c(-c2ccc(O)cc2)n(Cc2ccc(OCCN3CCCCCC3)cc2)c2ccc(O)cc12 as well? 32

Would you mind doing CC(C)NCC(O)COc1ccc(CCOCC2CC2)cc1.Cl (configuration not stated) [BETAXOLOL HYDROCHLORIDE] as well? 5

Would you mind doing C=CC(=O)Nc1cccc(C(=O)Nc2ccc(Nc3cc(-c4[nH]c(SC)nc4C)ccn3)cc2)c1 as well? 9

Would you mind doing C[C@@]1(C(=O)Nc2ccc(F)nc2)CCCN1c1nc(Nc2cc(C3CC3)n[nH]2)c2cccn2n1 as well? 20

Would you mind doing c1cn2cc(-c3ccc4cn[nH]c4c3)nc(Nc3ccc(N4CCOCC4)cc3)c2n1 as well? 28

Would you mind doing CN(C)CC#Cc1ccc(OCCCc2sc(N3CCc4cccc(C(=O)Nc5nc6ccccc6s5)c4C3)nc2C(=O)O)c(F)c1 as well? 8

Would you mind doing NC(=O)Nc1cc(-c2cccc(F)c2)sc1C(=O)N[C@H]1CCCNC1 as well? 21

* * *

system: Fibroblast; assay: Multiplex assay against human fibroblast; type: toxicity, cell-based; settings: 12 h, 1 µM, compound concentration 1 uM, replicate 1
readout: Population Healthy Nuclei (%)

Cc1nc(-c2cn3c(n2)-c2ccc(-c4cnn(C(C)(C)C(N)=O)c4)cc2OCC3)n(C(C)C)n1 [TASELISIB] : 53%

Given the entry C[C@@]1(C(=O)Nc2ccc(F)nc2)CCCN1c1nc(Nc2cc(C3CC3)n[nH]2)c2cccn2n1 [BMS-754807] , report its measured Population Healthy Nuclei (%). 50%

Would you mind doing C=CC(=O)Nc1cccc(C(=O)Nc2ccc(Nc3cc(-c4[nH]c(SC)nc4C)ccn3)cc2)c1 as well? 43%

Would you mind doing CC[C@H](C)C(=O)O[C@H]1C[C@@H](C)C=C2C=C[C@H](C)[C@H](CC[C@@H]3C[C@@H](O)CC(=O)O3)[C@H]21 [LOVASTATIN] as well? 35%

Would you mind doing C[C@@H](NCCCc1cccc(C(F)(F)F)c1)c1cccc2ccccc12.Cl [CINACALCET HYDROCHLORIDE] as well? 46%

Would you mind doing COc1ncc(-c2ccc3nccc(-c4ccnnc4)c3c2)cc1NS(=O)(=O)c1ccc(F)cc1F [OMIPALISIB] as well? 49%

Would you mind doing CN(C)C(=O)N[C@H]1CC[C@H](CCN2CCN(c3cccc(Cl)c3Cl)CC2)CC1.Cl [CARIPRAZINE HYDROCHLORIDE] as well? 51%

* * *

test system: U2OS; experiment: Multiplex assay against U2OS; assay type: toxicity, cell-based; details: human, 48 h, 1 µM, compound concentration 1 uM, replicate 1
readout: Population Normal (%)
# output: bare number, implied unit %

Cc1[nH]c(/C=C2\C(=O)Nc3ccc(S(=O)(=O)N(C)c4cccc(Cl)c4)cc32)c(C)c1C(=O)N1CCN(C)CC1 : 95
CC[C@H](C)C(=O)O[C@H]1C[C@@H](C)C=C2C=C[C@H](C)[C@H](CC[C@@H]3C[C@@H](O)CC(=O)O3)[C@H]21 : 96
CN(C)C(=O)/C(C#N)=C/c1ccc(-c2nc3cnc4[nH]ccc4c3n2C2CCCCC2)o1 : 99

Given the entry CN1CCN(CCOc2cc(OC3CCOCC3)c3c(Nc4c(Cl)ccc5c4OCO5)ncnc3c2)CC1 , report its measured Population Normal (%). 94

Would you mind doing Cl.N#Cc1ccc2[nH]cc(CCCCN3CCN(c4ccc5oc(C(N)=O)cc5c4)CC3)c2c1 [VILAZODONE HYDROCHLORIDE] as well? 93

Would you mind doing COc1cccc([C@@H](C)NCCCc2ccccc2Cl)c1.Cl [TECALCET HYDROCHLORIDE] as well? 79

Would you mind doing O=C(NCCCC1CCCCC1)c1ccc(CNC(=O)c2cnn(-c3ccccc3)c2C(F)(F)F)cc1 as well? 98

Would you mind doing Cc1cc(C)cc(-c2cnc3cc(Cl)c(-c4cccc(O)c4)cc3c2OCCCN)c1 as well? 98

Would you mind doing Cc1csc2c(N[C@@H](C)CN3CCN(S(=O)(=O)c4ccc(Cl)c(Cl)c4)CC3)ncnc12 as well? 96

Would you mind doing CN1CCCC(n2nc(Cc3ccc(Cl)cc3)c3ccccc3c2=O)CC1.Cl (stereo not given) [AZELASTINE HYDROCHLORIDE] as well? 93

Would you mind doing CNc1nc(NCc2ccc(NS(C)(=O)=O)cc2Cl)cc(-c2ccccn2)n1 as well? 92

Would you mind doing C=CC(=O)Nc1cccc(C(=O)Nc2ccc(Nc3cc(-c4[nH]c(SC)nc4C)ccn3)cc2)c1 as well? 96

Would you mind doing COc1cc(-n2cnc3cc(-c4ccc(Cl)cc4)sc3c2=O)ccc1OCCN1CCCC1 as well? 96

* * *

system: HEK-293T; assay: Multiplex assay against HEK293T; assay type: toxicity, cell-based; settings: human, 24 h, 10 µM, compound concentration 10 uM, replicate 2;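 for Population Tubulin-Different-Phenotype (%): share of the cells with healthy nuclei that show this phenotype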
readout: Population Tubulin-Different-Phenotype (%)

Please review the following examples before continuing.
COc1ncc(-c2ccc3nccc(-c4ccnnc4)c3c2)cc1NS(=O)(=O)c1ccc(F)cc1F : 46%
CN(C)CC#Cc1ccc(OCCCc2sc(N3CCc4cccc(C(=O)Nc5nc6ccccc6s5)c4C3)nc2C(=O)O)c(F)c1 : 48%
COc1cc(-n2cnc3cc(-c4ccc(Cl)cc4)sc3c2=O)ccc1OCCN1CCCC1 : 48%

// next item, Population Tubulin-Different-Phenotype (%) requested
Given the entry CN1CCC[C@@H]1CCO[C@](C)(c1ccccc1)c1ccc(Cl)cc1.O=C(O)/C=C/C(=O)O [CLEMASTINE FUMARATE] , report its measured Population Tubulin-Different-Phenotype (%). 93%

* * *

The reader will find reported Population Normal (%) values listed item by item below.
test system: HEK-293T; experiment: Multiplex assay against HEK293T; assay type: toxicity, cell-based; settings: human, 12 h, 1 µM, compound concentration 1 uM, replicate 2
# output: bare number, implied unit %

CN1CCCC(n2nc(Cc3ccc(Cl)cc3)c3ccccc3c2=O)CC1.Cl (stereo not drawn) [AZELASTINE HYDROCHLORIDE] : 94
CN(C)CC#Cc1ccc(OCCCc2sc(N3CCc4cccc(C(=O)Nc5nc6ccccc6s5)c4C3)nc2C(=O)O)c(F)c1 [A-1155463] : 96
Cc1csc2c(N[C@@H](C)CN3CCN(S(=O)(=O)c4ccc(Cl)c(Cl)c4)CC3)ncnc12 : 86
O=C1NCN(c2ccccc2)C12CCN(CCCOc1ccc(F)cc1)CC2 [SPIRAMIDE] : 92
Cc1c(-c2ccc(O)cc2)n(Cc2ccc(OCCN3CCCCCC3)cc2)c2ccc(O)cc12 [BAZEDOXIFENE] : 93

Notebook: pull reported Population Normal (%) for HEK-293T, entry Cn1cc(-c2[nH]c3cc(NC(=O)[C@H](N)C4CCCCC4)cc4c3c2C=NNC4=O)cn1 93

Would you mind doing CN(C)C(=O)/C(C#N)=C/c1ccc(-c2nc3cnc4[nH]ccc4c3n2C2CCCCC2)o1 as well? 94

Would you mind doing Cc1[nH]c(/C=C2\C(=O)Nc3ccc(S(=O)(=O)N(C)c4cccc(Cl)c4)cc32)c(C)c1C(=O)N1CCN(C)CC1 as well? 95
